Provenance of the data: the supplement of paper PMC13380429

# System: Vero E6
# PROCEDURE SUMMARY: cell viability relative to DMSO; higher = less toxic
# EXPERIMENTAL CONDITIONS: 72 h; 1 nM
cell viability overview
Answer shape: numeric part, then the unit.

COMPOUND: Nc1ncnc2nc(-c3ccc(N4CCOCC4)nc3)cc(-c3cccc(Br)c3)c12
MEAS VALUE: 96.1%

COMPOUND: COc1ccc(CCN)cc1OC
MEAS VALUE: 108%

COMPOUND: C[C@H](/C=C/[C@H](C)C(C)(C)O)[C@H]1CC[C@H]2/C(=C/C=C3C[C@@H](O)C[C@H](O)C3)CCC[C@]12C
MEAS VALUE: 96.6%

COMPOUND: C/C(=N\NC(=N)N)c1cc(NC(=O)CCCCCCCCC(=O)Nc2cc(/C(C)=N/NC(=N)N)cc(/C(C)=N/NC(=N)N)c2)cc(/C(C)=N/NC(=N)N)c1
MEAS VALUE: 100%

COMPOUND: C=CC(=O)N1CCN(C(=O)CNc2cc(I)c(Cl)cc2O)CC1 [K-Ras(G12C)-inhibitor-12]
MEAS VALUE: 101%

Entry Oc1c(I)cc(Cl)c2cccnc12 ; cell viability = 106%

Sample C[C@]12CC/C(=N\OCCN)C[C@@H]1C(=O)C[C@@H]1[C@@H]2CC[C@]2(C)C(=O)CC[C@@H]12 ; cell viability observed: 106%

response.value for CNCCC=C1c2ccccc2C=Cc2ccccc21 (field: cell viability) = 95.9%

Summary for this compound, Cn1cc(C(=O)c2cccc3ccccc23)cc1C(=O)O : cell viability is 92.9%
